study_system: T1, human FcRn/b2M (human, UniProt P61769 21-119, biotinylated)
T1 construct: bought recombinant biotinylated protein (ACRO FCM-H82W4 or Immunitrack ITF01); also called hFcRn; hFcRn/hb2M
T1 sequence (chain, as listed by the source limits assumed, chain 1 of 2): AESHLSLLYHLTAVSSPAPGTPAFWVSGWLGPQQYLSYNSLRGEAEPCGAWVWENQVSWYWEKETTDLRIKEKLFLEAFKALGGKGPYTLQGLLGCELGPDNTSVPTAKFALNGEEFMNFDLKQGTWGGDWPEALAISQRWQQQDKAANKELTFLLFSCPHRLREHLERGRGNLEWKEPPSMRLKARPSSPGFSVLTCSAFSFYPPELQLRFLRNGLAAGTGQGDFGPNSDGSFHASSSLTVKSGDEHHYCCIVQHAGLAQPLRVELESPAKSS
T1 sequence (P61769 21-119 limits assumed, chain 2 of 2): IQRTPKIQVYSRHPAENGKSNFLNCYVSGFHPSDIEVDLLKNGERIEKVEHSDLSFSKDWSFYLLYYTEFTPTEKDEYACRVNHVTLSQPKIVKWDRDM
protocol_text: SPR off-rate; pH 7.4 vs pH 6.0;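 also: surface plasmon resonance with diluted periplasmic extracts flowed over ligand surfaces, 120 s association and 600–3600 s dissociation at 25 °C, running buffer containing 150 mM NaCl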
measured_attribute: kd ratio pH 7.4/6.0
Keep the answer to the number alone.

Query string: Fill in: kd ratio pH 7.4/6.0 of T0263018B11 S52aA (VHH, name in Kabat numbering, FLAG3-His6 tagged) VHH: EVQLVESGGGVVQPGGSLRLSCAASGFTFSSYAMYWVRQAPGKGLEWVSAISAGGGSTDYADSVKGRFTISRDNSKNTLYLQMNSLRPEDTALYYCAADTLYTSLTWYSYWGQGTLVTVSS is ___
Result string: 43

# evaluate next
Query string: Reported kd ratio pH 7.4/6.0, binder T0263018B11 S52V (VHH, name in Kabat numbering, FLAG3-His6 tagged) VHH: EVQLVESGGGVVQPGGSLRLSCAASGFTFSSYAMYWVRQAPGKGLEWVSAIVSGGGSTDYADSVKGRFTISRDNSKNTLYLQMNSLRPEDTALYYCAADTLYTSLTWYSYWGQGTLVTVSS : ____
Result string: 24
